System: honeybee Apis mellifera
run_description: Oral toxicity against honeybee
Format: in vivo
particulars: 150 ng/bee, oral, 24 h, DMSO 1%
readout_kind: % mortality 24 h
Respond with the figure and its unit, in that order.

Lookup result for COc1ccc(S(=O)(=O)N2CCCC2)cn1 ; measured % mortality 24 h: 0%

Lookup result for COc1ccc(S(=O)(=O)N2CCCC2C#N)cn1 (stereo not shown) ; measured % mortality 24 h: 2.5%

Lookup result for N#C[C@@H]1CCCN1S(=O)(=O)c1ccc(Cl)nc1 ; measured % mortality 24 h: 0%

Lookup result for Cc1ccc(S(=O)(=O)N2CCC[C@H]2C#N)cn1 ; measured % mortality 24 h: 0%

====

For each record, write down the corresponding % mortality 48 h.
Tested on: honeybee Apis mellifera
run_description: Oral toxicity against honeybee
Type: in vivo
particulars: 50 ng/bee, oral, 48 h, DMSO 1%
Write the answer as a number in %, unit excluded.

Lookup result for N#C[C@@H]1CCCN1S(=O)(=O)c1ccc(Cl)nc1 ; measured % mortality 48 h: 10.0

Lookup result for COc1ccc(S(=O)(=O)N2CCCC2C#N)cn1 (stereo not shown) ; measured % mortality 48 h: 5.0

Lookup result for COc1ccc(S(=O)(=O)N2CCCC2)cn1 ; measured % mortality 48 h: 3.3

Lookup result for Cc1ccc(S(=O)(=O)N2CCC[C@H]2C#N)cn1 ; measured % mortality 48 h: 0

====

System: honeybee Apis mellifera
run_description: Oral toxicity against honeybee
Assay type: in vivo
particulars: 50 ng/bee, oral, 24 h, DMSO 1%
readout_kind: % mortality 24 h

Lookup result for COc1ccc(S(=O)(=O)N2CCCC2)cn1 [Compound 3ii] ; measured % mortality 24 h: 0%

Lookup result for N#C[C@@H]1CCCN1S(=O)(=O)c1ccc(Cl)nc1 [Compound 3i] ; measured % mortality 24 h: 3.3%

Lookup result for Cc1ccc(S(=O)(=O)N2CCC[C@H]2C#N)cn1 [Compound 3iv] ; measured % mortality 24 h: 0%

Lookup result for COc1ccc(S(=O)(=O)N2CCCC2C#N)cn1 (stereo not shown) [Compound 3iii] ; measured % mortality 24 h: 3.3%
